# assay text: Ratio against rat A2A receptor and Human A3 receptor
reported endpoint: Selectivity ratio

structure_notation=O=C(Cc1ccccc1I)Nc1nc2ccc(Cl)cc2c2nc(-c3ccco3)nn12 bound_type=< observed_measurement=1
structure_notation=O=C(CCCCC(=O)OCc1ccccc1)Nc1nc2ccc(Cl)cc2c2nc(-c3ccco3)nn12 bound_type== observed_measurement=0.37
structure_notation=NCCCCCCC(=O)Nc1nc2ccc(Cl)cc2c2nc(-c3ccco3)nn12 bound_type== observed_measurement=0.16
structure_notation=COc1ccc(CC(=O)Nc2nc3ccc(Cl)cc3c3nc(-c4ccco4)nn23)cc1 bound_type== observed_measurement=1.9
structure_notation=O=C(Nc1nc2ccc(Cl)cc2c2nc(-c3ccco3)nn12)C(c1ccccc1)c1ccccc1 bound_type== observed_measurement=21
structure_notation=Nc1ccc(CC(=O)Nc2nc3ccc(Cl)cc3c3nc(-c4ccco4)nn23)cc1I bound_type== observed_measurement=0.21
structure_notation=O=C(Cc1cccc(I)c1)Nc1nc2ccc(Cl)cc2c2nc(-c3ccco3)nn12 bound_type== observed_measurement=0.011
structure_notation=CC(C(=O)Nc1nc2ccc(Cl)cc2c2nc(-c3ccco3)nn12)(c1ccccc1)c1ccccc1 bound_type== observed_measurement=2.3
structure_notation=NCCCCC(=O)Nc1nc2ccc(Cl)cc2c2nc(-c3ccco3)nn12 bound_type== observed_measurement=0.02
structure_notation=O=C(O)CCCC(=O)Nc1nc2ccc(Cl)cc2c2nc(-c3ccco3)nn12 bound_type== observed_measurement=0.014
